Target: KRAS Q61H (Homo sapiens, UniProt P01116+P62937, Q61H)
Sequence (P01116 1-169 isoform P01116-2 Q61H limits assumed): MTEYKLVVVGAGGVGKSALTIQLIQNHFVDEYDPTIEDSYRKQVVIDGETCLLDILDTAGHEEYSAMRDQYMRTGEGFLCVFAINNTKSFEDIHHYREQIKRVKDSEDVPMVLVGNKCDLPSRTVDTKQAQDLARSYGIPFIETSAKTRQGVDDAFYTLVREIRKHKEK
Sequence (P62937 whole entry): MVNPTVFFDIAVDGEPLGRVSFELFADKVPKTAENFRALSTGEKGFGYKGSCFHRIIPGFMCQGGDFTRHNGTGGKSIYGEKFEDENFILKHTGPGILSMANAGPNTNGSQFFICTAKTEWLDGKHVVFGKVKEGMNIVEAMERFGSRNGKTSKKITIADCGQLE
Experiment: Disruption of BRAF RBD interaction with Ras (FRET / MOA assay, with Cyclophilin A)
Assay type: biochemical
Conditions: KRAS Q61H; read-out: KRAS Q61H FRET data IC50
Field: IC50. Provide a value for each of the compounds that follow.

Which IC50 reading was recorded for the compound CCn1c(-c2cccnc2[C@H](C)OC)c2c3cc(ccc31)-c1cc(O)cc(c1)C[C@H](NC(=O)[C@H](C(C)C)N(C)C(=O)C1Cc3cccnc3C1)C(=O)N1CCC[C@H](N1)C(=O)OCC(C)(C)C2 (stereo partly shown) [Example A250] ? 10 to 100 nM

Which IC50 reading was recorded for the compound CCn1c(-c2cccnc2[C@H](C)OC)c2c3cc(ccc31)-c1csc(n1)C[C@H](NC(=O)[C@@H]1CCCO1)C(=O)N1CCC[C@H](N1)C(=O)OCC(C)(C)C2 [Example A331] ? 100 to 1000 nM

Which IC50 reading was recorded for the compound CCn1c(-c2cccnc2[C@H](C)OC)c2c3cc(ccc31)-c1csc(n1)C[C@H](NC(=O)[C@H](C(C)C)N(C)C(=O)N1CC([C@H](C)OC)C1)C(=O)N1CCC[C@H](N1)C(=O)OCC(C)(C)C2 (atropisomer, axis not shown) [Example A279] ? 10 to 100 nM

Which IC50 reading was recorded for the compound CCn1c(-c2cccnc2[C@H](C)OC)c2c3cc(ccc31)-c1csc(n1)C[C@H](NC(=O)[C@H](C(C)C)N(C)C(=O)N1CCO[C@@H](C)C1)C(=O)N1CCC[C@H](N1)C(=O)OCC(C)(C)C2 (atropisomer, axis not shown) [Example A309] ? 10 to 100 nM

###

Field: IC50. Provide a value for each of the compounds that follow.
Molecular target: KRAS G13C (Homo sapiens, UniProt P01116+P62937, G13C)
Sequence (P01116 1-169 isoform P01116-2 G13C limits assumed, one chain of several): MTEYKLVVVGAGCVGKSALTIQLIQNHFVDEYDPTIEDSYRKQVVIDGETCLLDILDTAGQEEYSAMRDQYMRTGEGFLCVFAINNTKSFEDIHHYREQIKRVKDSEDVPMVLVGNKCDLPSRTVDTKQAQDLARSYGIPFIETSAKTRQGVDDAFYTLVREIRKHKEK
Assay: Ras-Raf disruption / FRET / MOA assay (BRAF RBD)
Format: biochemical
Conditions: KRAS G13C FRET data IC50, Ras-Raf disruption, with Cyclophilin A

Please state recorded IC50 (tested on KRAS G13C (Homo sapiens, UniProt P01116+P62937, G13C)) of CCn1c(-c2cccnc2[C@H](C)OC)c2c3cc(ccc31)-c1cc(O)cc(c1)C[C@H](NC(=O)[C@H](C(C)C)N(C)C(=O)CN(C)C(=O)[C@H]1CN1C(C)C)C(=O)N1CCC[C@H](N1)C(=O)OCC(C)(C)C2 (some centres unmarked) 10 to 100 nM

Please state recorded IC50 (tested on KRAS G13C (Homo sapiens, UniProt P01116+P62937, G13C)) of `CCn1c(-c2cccnc2[C@H](C)OC)c2c3cc(ccc31)-c1cccc(c1)C[C@H](NC(=O)[C@H](C(C)C)N(C)C(=O)CN(C)C(=O)[C@H]1CN1)C(=O)N1CCC[C@H](N1)C(=O)OCC(C)(C)C2` 100 to 1000 nM

Please state recorded IC50 (tested on KRAS G13C (Homo sapiens, UniProt P01116+P62937, G13C)) of CCn1c(-c2cccnc2[C@H](C)OC)c2c3cc(ccc31)-c1cc(O)cc(c1)C[C@H](NC(=O)[C@H](C(C)C)N(C)C(=O)CN(C)C(=O)[C@H]1CN1)C(=O)N1CCC[C@H](N1)C(=O)OCC(C)(C)C2 (single isomer, unassigned) [Example 42A] < 10 nM

Please state recorded IC50 (tested on KRAS G13C (Homo sapiens, UniProt P01116+P62937, G13C)) of CCn1c(-c2cccnc2[C@H](C)OC)c2c3cc(ccc31)-c1cc(O)cc(c1)C[C@H](NC(=O)[C@H](C(C)C)N(C)C(=O)CN(C)C(=O)[C@@H]1CN1CCO)C(=O)N1CCC[C@H](N1)C(=O)OCC(C)(C)C2 (some centres unmarked) 10 to 100 nM

Please state recorded IC50 (tested on KRAS G13C (Homo sapiens, UniProt P01116+P62937, G13C)) of `CCn1c(-c2cccnc2[C@H](C)OC)c2c3cc(ccc31)-c1cc(O)cc(c1)C[C@H](NC(=O)[C@H](C(C)C)N(C)C(=O)CN(C)C(=O)[C@@H]1N[C@@H]1C1CC1)C(=O)N1CCC[C@H](N1)C(=O)OCC(C)(C)C2` 10 to 100 nM

Please state recorded IC50 (tested on KRAS G13C (Homo sapiens, UniProt P01116+P62937, G13C)) of CCn1c(-c2cccnc2[C@H](C)OC)c2c3cc(ccc31)-c1cc(O)cc(c1)C[C@H](NC(=O)[C@H](C(C)C)N(C)C(=O)CN(C)C(=O)[C@@H]1CN1CC1(C)COC1)C(=O)N1CCC[C@H](N1)C(=O)OCC(C)(C)C2 (some centres unmarked) 10 to 100 nM

Please state recorded IC50 (tested on KRAS G13C (Homo sapiens, UniProt P01116+P62937, G13C)) of `CCn1c(-c2cccnc2[C@H](C)OC)c2c3cc(ccc31)-c1cc(O)cc(c1)C[C@H](NC(=O)[C@H](C(C)C)N(C)C(=O)CN(C)C(=O)[C@@H]1N[C@H]1C1COC1)C(=O)N1CCC[C@H](N1)C(=O)OCC(C)(C)C2` < 10 nM

Please state recorded IC50 (tested on KRAS G13C (Homo sapiens, UniProt P01116+P62937, G13C)) of CCn1c(-c2cccnc2[C@H](C)OC)c2c3cc(ccc31)-c1cc(O)cc(c1)C[C@H](NC(=O)[C@H](C(C)C)N(C)C(=O)CN(C)C(=O)[C@@H]1CN1CCCOC)C(=O)N1CCC[C@H](N1)C(=O)OCC(C)(C)C2 (some centres unmarked) 10 to 100 nM
